- System: lymphoma cell line DB
- experimentNotes: Serial dilutions: fixed ABT-199 concentration with Compound A titration, six-day cell proliferation
- Format: cell-based
- conditionsUsed: 144 h, with fixed ABT-199 4 nM, six days, read-out: compound A required for gIC50
testReadout: IC50 (nM)
State the answer as a number, implicitly in nM.

input: IC50 for O=C(NC[C@H](O)CN1CCc2ccccc2C1)c1ccnc(NC2CCC2)c1 ?
output: 514

# credit: patent US20210386738A1
